- PROTOCOL NOTES: cn = amount concentration of the nth substance listed, in mol/dm3
- CONDITION SET: 313.15 K; 101 kPa; Liquid; c1 = 0.8
VALUE TYPE: viscosity (mPa·s)
Dear colleague, please return just the value in mPa·s, with no unit written.

Answered examples (3):
{"COMPOUND": "OC[C@@H](O)[C@@H](O)CO [meso-1,2,3,4-butanetetrol] + O", "NUMERIC VALUE": 0.8339}
{"COMPOUND": "OC[C@@H](O)[C@H](O)[C@@H](O)CO [xylitol] + O", "NUMERIC VALUE": 0.8825}
{"COMPOUND": "OC[C@@H](O)[C@@H](O[C@H]1O[C@H](CO)[C@@H](O)[C@H](O)[C@H]1O)[C@H](O)[C@@H](O)CO [4-O-α-D-glucopyranosyl-D-glucitol] + O", "NUMERIC VALUE": 1.438}

Memo: OC[C@@H](O)[C@@H](O)[C@H](O)[C@@H](O)CO [D-sorbitol] + O , reported viscosity: 0.931

The compound OC[C@@H](O)[C@@H](O)[C@H](O)[C@H](O)CO [mannitol] + O showed viscosity equal to 0.9934

###

# mass density per entry
- PROTOCOL NOTES: cn = amount concentration of the nth substance listed, in mol/dm3
- CONDITION SET: 293.15 K; 101 kPa; Liquid; c1 = 0.5
Your answer should be a plain number; it is taken to be in kg/m3.

Some entries whose results are on file:
{"MOLECULE": "OC[C@@H](O)[C@@H](O[C@H]1O[C@H](CO)[C@@H](O)[C@H](O)[C@H]1O)[C@H](O)[C@@H](O)CO [4-O-α-D-glucopyranosyl-D-glucitol] + O", "RESULT UNITS": "kg/m3", "mass density": 1045.13}
{"MOLECULE": "OC[C@@H](O)[C@H](O)[C@@H](O)CO [xylitol] + O", "RESULT UNITS": "kg/m3", "mass density": 1023.6}
{"MOLECULE": "OC[C@@H](O)[C@@H](O)CO [meso-1,2,3,4-butanetetrol] + O", "RESULT UNITS": "kg/m3", "mass density": 1016.16}
{"MOLECULE": "OC[C@@H](O)[C@@H](O)[C@H](O)[C@H](O)CO [mannitol] + O", "RESULT UNITS": "kg/m3", "mass density": 1029.1}

# ---- query molecule ----
Recorded mass density (molecule OC[C@@H](O)[C@@H](O)[C@H](O)[C@@H](O)CO [D-sorbitol] + O ): 1029.89

###

Measured mass density of individual entries
- PROTOCOL NOTES: cn = amount concentration of the nth substance listed, in mol/dm3
- CONDITION SET: 323.15 K; 101 kPa; Liquid; c1 = 0.9
Kindly provide the numeric value in kg/m3 only, without the unit symbol.

Below, 2 compounds whose answers are already recorded.
{"COMPOUND": "OC[C@@H](O)[C@@H](O[C@H]1O[C@H](CO)[C@@H](O)[C@H](O)[C@H]1O)[C@H](O)[C@@H](O)CO [4-O-α-D-glucopyranosyl-D-glucitol] + O", "mass density [kg/m3]": 1071.04}
{"COMPOUND": "OC[C@@H](O)[C@H](O)[C@@H](O)CO [xylitol] + O", "mass density [kg/m3]": 1032.09}

Just so you know, measured mass density for OC[C@@H](O)[C@@H](O)CO [meso-1,2,3,4-butanetetrol] + O came out at 1019.38

According to the records, this compound OC[C@@H](O)[C@@H](O)[C@H](O)[C@@H](O)CO [D-sorbitol] + O displays mass density of 1043.79

From: the NIST ThermoML archive (doi:10.1021/je9010486)
